Biological target: T1, legumain AEP catalytic domain (Homo sapiens, UniProt Q99538)
T1 chain: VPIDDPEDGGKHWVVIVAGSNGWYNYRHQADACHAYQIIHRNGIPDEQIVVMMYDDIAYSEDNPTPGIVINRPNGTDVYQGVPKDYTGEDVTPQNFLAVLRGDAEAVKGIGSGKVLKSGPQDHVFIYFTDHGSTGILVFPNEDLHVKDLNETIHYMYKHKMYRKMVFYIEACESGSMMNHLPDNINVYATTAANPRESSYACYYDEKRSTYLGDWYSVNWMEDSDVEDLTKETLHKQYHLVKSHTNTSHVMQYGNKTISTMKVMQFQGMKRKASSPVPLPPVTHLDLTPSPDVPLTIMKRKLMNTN
Assay: enzyme inhibition assay (AAN-AMC)
pKi: −log10 of the molar value.
readout: pKi

Completed entries (count: 2):
{"binder": "macrocypin 1a (protein) GFEDGFYTILHLAEGQHPNSKIPGGMYASSKDGKDVPVTAEPLGPQSKIRWWIARDPQAGDDMYTITEFRIDNSIPGQWSRSPVETEVPVYLYDRIKAEETGYTCAWRIQPADHGADGVYHIVGNVRIGSTDWADLREEYGEPQVYMKPVPVIPNVYIPRWFILGYEE", "pKi": 8.66}
{"binder": "macrocypin 1a (protein) GFEDGFYTILHLAEGQHPNSKIPGGMYASSKDGKDVPVTAEPLGPQSKIRWWIARDPQAGDDMYTITEFEIDNSIPGQWSRSPVETEVPVYLYDRIKAEETGYTCAWRIQPADHGADGVYHIVGNVRIGSTDWADLREEYGEPQVYMKPVPVIPNVYIPRWFILGYEE", "pKi": 6.83}

1 = macrocypin 1a (protein) GFEDGFYTILHLAEGQHPNSKIPGGMYASSKDGKDVPVTAEPLGPQSKIRWWIARDPQAGDDMYTITEFRIDNSIPGQWSRSPVETEVPVYLYDAIKAEETGYTCAWRIQPADHGADGVYHIVGNVRIGSTDWADLREEYGEPQVYMKPVPVIPNVYIPRWFILGYEE
2 = clitocypin 2 (protein) MASLEDGIYRLRAVTTHNPDPGVGGEYATVEGARRPVKAEPNTPPFFEQQIWQVTRNADGQYTIKYQGLNTPFEYGFSYDELEPNAPVIAGDPKEYILQLVPSTADVYIIRAPIQRIGVDVEVGVQGNTLVYKFFPVDGSGGDRPAWRFTRE
3 = clitocypin 2 (protein) MASLEDGIYRLRAVTTHNPDPGVGGEYATVEGARRPVKAEPNTPPFFAAQAWQVTRNADGQYTIKYQGLNTPFEYGFSYDELEPNAPVIAGDPKEYILQLVPSTADVYIIRAPIQRIGVDVEVGVQGNTLVYKFFPVDGSGGDRPAWRFTRE
Query: In this exercise, place the 3 binders in ascending sequence of their recorded pKi. Provide the ranking by listing each label in its place in the requested order.
Response: 3, 1, 2
(3: 5.17, 1: 6.74, 2: 7.10)

Attribution: paper PMC9579014
